- ASSAYED_SYSTEM: Glucagon receptor (Homo sapiens, UniProt P47871)
- Sequence (P47871 whole entry): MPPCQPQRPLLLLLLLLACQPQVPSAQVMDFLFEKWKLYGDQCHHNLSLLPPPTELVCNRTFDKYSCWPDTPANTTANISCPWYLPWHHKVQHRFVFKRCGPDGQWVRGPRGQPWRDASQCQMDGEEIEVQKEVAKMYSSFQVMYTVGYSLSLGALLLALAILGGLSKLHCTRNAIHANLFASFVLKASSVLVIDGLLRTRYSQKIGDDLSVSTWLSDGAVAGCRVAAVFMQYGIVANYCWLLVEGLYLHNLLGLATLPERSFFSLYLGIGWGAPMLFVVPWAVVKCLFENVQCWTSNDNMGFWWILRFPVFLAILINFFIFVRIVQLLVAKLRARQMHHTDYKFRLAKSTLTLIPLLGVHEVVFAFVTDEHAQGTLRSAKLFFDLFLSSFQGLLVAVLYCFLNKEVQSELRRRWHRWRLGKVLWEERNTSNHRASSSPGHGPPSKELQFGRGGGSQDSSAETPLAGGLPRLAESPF
- ASSAY_SUMMARY: Displacement of [125]glucagon from human glucagon receptor expressed in CHO cells
- Assay type: cell-based
pIC50: −log10 of the molar value.
Entries are sorted into classes by pIC50 as follows: low bin = under 7, mid bin = from 7 up to 8, high bin = 8 and over

Request: Pick a category. Item: CC(C)(C)[C@H]1CC[C@@H](N(C(=O)Nc2ccc(OC(F)(F)F)cc2)C2CCc3cc(C(=O)Nc4nn[nH]n4)ccc32)CC1 (some centres undefined)
Response: low bin

Request: Class (by measured pIC50) for CC(C)(C)[C@H]1CC[C@H](N(C(=O)Nc2cc(Cl)cc(Cl)c2)C2CCc3cc(C(=O)Nc4nn[nH]n4)ccc32)CC1 (some centres undefined)
Response: high bin

Request: Categorize the following entry: O=C(Nc1nn[nH]n1)c1ccc2c(c1)CCC2N(C(=O)Nc1ccc(OC(F)(F)F)cc1)c1ccc(C2CCCCC2)cc1 (centres undefined)
Response: mid bin

Request: // bin(item) where item = CC(C)(C)[C@H]1CC[C@@H](N(C(=O)Nc2ccc(OC(F)(F)F)cc2)C2CCc3cc(C(=O)Nc4nn[nH]n4)ccc32)CC1 (single isomer, unassigned)
Response: high bin

Request: Any idea which band O=C(O)CCNC(=O)c1ccc2c(c1)CCC2N(C(=O)Nc1ccc(OC(F)(F)F)cc1)c1ccc(OC(F)(F)F)cc1 (centres undefined) is in?
Response: low bin

Request: Which pIC50 band matches CC(C)(C)[C@H]1CC[C@H](N(C(=O)Cc2ccc(OC(F)(F)F)cc2)C2CCc3cc(C(=O)Nc4nnn[nH]4)ccc32)CC1 (some centres undefined) ?
Response: high bin

====

Hi there, I'd appreciate the recorded pIC50 for every entry that follows.
- ASSAYED_SYSTEM: UniProtKB P48546
- Sequence (P48546 whole entry): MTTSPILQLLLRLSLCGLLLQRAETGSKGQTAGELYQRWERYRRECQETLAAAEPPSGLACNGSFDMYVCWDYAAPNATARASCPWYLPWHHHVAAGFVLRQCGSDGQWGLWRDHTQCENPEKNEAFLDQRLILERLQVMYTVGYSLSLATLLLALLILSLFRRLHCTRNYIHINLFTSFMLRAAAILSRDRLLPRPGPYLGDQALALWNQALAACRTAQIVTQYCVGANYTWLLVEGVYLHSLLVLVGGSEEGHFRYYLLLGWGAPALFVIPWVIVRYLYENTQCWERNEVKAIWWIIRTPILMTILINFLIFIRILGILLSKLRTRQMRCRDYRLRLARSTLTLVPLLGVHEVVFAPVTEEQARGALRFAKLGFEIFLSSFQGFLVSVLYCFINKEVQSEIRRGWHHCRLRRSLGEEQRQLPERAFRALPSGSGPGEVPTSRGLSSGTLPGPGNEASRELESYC
- ASSAY_SUMMARY: Antagonist activity at human GIP receptor transfected in CHO cells assessed as inhibition of […] cAMP accumulation
API: returns pIC50 as number; meaning -log10 of concentration in mol/L.

Request: Lab request: please report pIC50 under test system UniProtKB P48546 for CC(C)(C)[C@H]1CC[C@H](N(C(=O)Nc2cc(Cl)cc(Cl)c2)C2CCc3cc(C(=O)Nc4nn[nH]n4)ccc32)CC1 (stereo not given in full)
Response: 5.45

Request: Form field - read-out: pIC50; system: UniProtKB P48546; submitted item: CC(C)(C)[C@H]1CC[C@H](N(C(=O)Nc2ccc(OC(F)(F)F)cc2)C2CCc3cc(C(=O)Nc4nn[nH]n4)ccc32)CC1 (stereo not given in full)
Response: 6.53

Request: Entry CC(C)(C)[C@H]1CC[C@H](N(C(=O)Nc2ccc(OC(F)(F)F)cc2)C2CCc3cc(C(=O)NCCC(=O)O)ccc32)CC1 (stereo not given in full) , system UniProtKB P48546: what pIC50 was measured?
Response: 6.88

Request: Which measured pIC50 belongs to CC(C)(C)[C@H]1CC[C@H](N(C(=O)Nc2ccc(OC(F)(F)F)cc2)C2CCOc3cc(C(=O)Nc4nn[nH]n4)ccc32)CC1 (stereo not given in full) , tested on UniProtKB P48546?
Response: 6.93

Request: Requested read-out pIC50, target or system UniProtKB P48546, entry CC(C)(C)[C@H]1CC[C@H](N(C(=O)Nc2ccc(OC(F)(F)F)cc2)C2CCCc3cc(C(=O)Nc4nn[nH]n4)ccc32)CC1 (stereo not given in full)
Response: 6.75

Request: Give pIC50 (UniProtKB P48546) of the following molecule: CC(C)(C)[C@H]1CC[C@@H](N(C(=O)Nc2ccc(OC(F)(F)F)cc2)C2CCc3cc(C(=O)Nc4nn[nH]n4)ccc32)CC1 (single isomer, unassigned)
Response: 6.36

Request: Write down the reported pIC50 of CC(C)(C)[C@H]1CC[C@H](N(C(=O)Nc2cc(C(F)(F)F)cc(C(F)(F)F)c2)C2CCc3cc(C(=O)Nc4nnn[nH]4)ccc32)CC1 (stereo not given in full) , test system: UniProtKB P48546.
Response: 5.37

Request: Give recorded pIC50 with UniProtKB P48546 for the following molecule: CC(C)(C)[C@H]1CC[C@H](N(C(=O)Cc2ccc(OC(F)(F)F)cc2)C2CCc3cc(C(=O)NCCC(=O)O)ccc32)CC1 (stereo not given in full)
Response: 6.54

Request: Tell me reported pIC50 for CC(C)(C)[C@H]1CC[C@H](N(C(=O)Nc2cc(C(F)(F)F)cc(C(F)(F)F)c2)C2CCc3cc(C(=O)NCCC(=O)O)ccc32)CC1 (stereo not given in full) , tested with UniProtKB P48546.
Response: 5.69

Request: Reported pIC50 for UniProtKB P48546, given CC(C)(C)[C@H]1CC[C@H](N(C(=O)Nc2ccc(OC(F)(F)F)cc2)C2CCCc3cc(C(=O)NCCC(=O)O)ccc32)CC1 (stereo not given in full) ?
Response: 6.77

Request: Record lookup: for UniProtKB P48546, what pIC50 belongs to CC(C)(C)[C@H]1CC[C@H](N(C(=O)c2ccc(OC(F)(F)F)cc2)C2CCc3cc(C(=O)Nc4nnn[nH]4)ccc32)CC1 (stereo not given in full) ?
Response: 6.21

Request: Short answer please: pIC50, UniProtKB P48546, entry CC(C)(C)[C@H]1CC[C@H](N(C(=O)Nc2ccc(OC(F)(F)F)cc2)C2CCOc3cc(C(=O)NCCC(=O)O)ccc32)CC1 (stereo not given in full)
Response: 6.66

Request: Under UniProtKB P48546: pIC50 value of CC(C)(C)[C@H]1CC[C@@H](N(C(=O)Nc2ccc(OC(F)(F)F)cc2)C2CCc3cc(C(=O)NCCC(=O)O)ccc32)CC1 (single isomer, unassigned) ?
Response: 6.22

Request: What measured pIC50 is associated with CC(C)(C)[C@H]1CC[C@H](N(C(=O)Cc2ccc(OC(F)(F)F)cc2)C2CCc3cc(C(=O)Nc4nnn[nH]4)ccc32)CC1 (stereo not given in full) on UniProtKB P48546?
Response: 6.93

Request: Record lookup: for UniProtKB P48546, what pIC50 belongs to CC(C)(C)[C@H]1CC[C@H](N(C(=O)Nc2cc(Cl)cc(Cl)c2)C2CCc3cc(C(=O)NCCC(=O)O)ccc32)CC1 (stereo not given in full) ?
Response: 5.89

====

Consider the following compounds; for each one, report its Cmax.
- ASSAY_SUMMARY: Cmax in mouse at 1 mg/kg, iv and 2 mg/kg, po
- Assay type: ADME, organism-based
- SETUP_CONDITIONS: in vivo

Request: # Cmax lookup, item CC(C)(C)[C@H]1CC[C@H](N(C(=O)Nc2ccc(OC(F)(F)F)cc2)C2CCc3cc(C(=O)NCCC(=O)O)ccc32)CC1 (stereo partly drawn)
Response: 0.13 µM

Request: Returns the measured Cmax for the input compound. Input: CC(C)(C)[C@H]1CC[C@H](N(C(=O)Nc2ccc(OC(F)(F)F)cc2)C2CCCc3cc(C(=O)Nc4nn[nH]n4)ccc32)CC1 (stereo partly drawn)
Response: 0.04 µM

Request: Data request, read-out Cmax, for CC(C)(C)[C@H]1CC[C@H](N(C(=O)Nc2ccc(OC(F)(F)F)cc2)C2CCOc3cc(C(=O)NCCC(=O)O)ccc32)CC1 (stereo partly drawn)
Response: 0.06 µM

====

Hi there, I'd appreciate the recorded IC50 for every entry that follows.
- ASSAYED_SYSTEM: Glucagon receptor (Homo sapiens)
- ASSAY_SUMMARY: Displacement of [125]glucagon from human glucagon receptor expressed in CHO cells
- Format: cell-based
Numeric answer only, unit nM assumed.

Request: # lookup: IC50 of CC(C)(C)[C@H]1CC[C@H](N(C(=O)Nc2cc(Cl)cc(Cl)c2)C2CCc3cc(C(=O)NCCC(=O)O)ccc32)CC1 (stereo partly drawn)
Response: 10

Request: So what's the measured IC50 for this one? O=C(O)CCNC(=O)c1ccc2c(c1)CCC2N(C(=O)Nc1ccc(OC(F)(F)F)cc1)c1ccc(C2CCCCC2)cc1 (stereo not drawn)
Response: 68

Request: IC50 for CC(C)(C)[C@H]1CC[C@H](N(C(=O)Nc2cc(C(F)(F)F)cc(C(F)(F)F)c2)C2CCc3cc(C(=O)Nc4nnn[nH]4)ccc32)CC1 (stereo partly drawn) ?
Response: 7.6

Where do the numbers come from? From ChEMBL document CHEMBL1146306.
